Measured Kd accompanies every entry in the list below.
Molecular target: T1, LARP6C La-module (Arabidopsis thaliana, UniProt Q9LHL3 137-332)
T1 sequence: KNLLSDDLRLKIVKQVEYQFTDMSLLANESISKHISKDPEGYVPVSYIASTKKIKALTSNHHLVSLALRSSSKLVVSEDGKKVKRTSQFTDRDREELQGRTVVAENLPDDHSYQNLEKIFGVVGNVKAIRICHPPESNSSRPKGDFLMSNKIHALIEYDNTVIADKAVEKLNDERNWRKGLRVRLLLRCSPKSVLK
Assay: EMSA
Quick note: give the figure in nM, leave out the unit.

binder	measurement units	Kd
CUUCUUUCUUUCUUUUUUGUU (ssRNA) [B1]	nM	800

Note: attention shifts to another entry.
Can you share its Kd? I mean this binder: UCUCUCUGUUUCUUAUUCAUC (ssRNA) [B2]
1900
